System name: T1, human GIPR (glucose-dependent insulinotropic polypeptide receptor) (human, UniProt P48546 22-466)
T1 sequence (looked up): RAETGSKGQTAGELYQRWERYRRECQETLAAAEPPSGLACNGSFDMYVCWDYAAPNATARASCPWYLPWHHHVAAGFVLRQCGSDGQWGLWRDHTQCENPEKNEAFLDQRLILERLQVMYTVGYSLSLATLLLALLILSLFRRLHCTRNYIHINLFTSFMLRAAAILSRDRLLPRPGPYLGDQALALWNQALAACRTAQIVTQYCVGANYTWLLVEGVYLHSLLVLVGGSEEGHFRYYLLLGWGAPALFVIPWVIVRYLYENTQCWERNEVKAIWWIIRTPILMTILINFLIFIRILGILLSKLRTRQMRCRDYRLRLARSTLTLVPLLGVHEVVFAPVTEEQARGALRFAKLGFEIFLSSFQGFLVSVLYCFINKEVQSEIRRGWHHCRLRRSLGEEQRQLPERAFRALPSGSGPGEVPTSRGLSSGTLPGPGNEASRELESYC
Protocol summary: cell-based or functional assay
Non-standard residues stand in square brackets, D forms with d. Groups on a side chain read outwards from the residue. *: point of attachment. dPhe(3-Cl) = N[C@H](Cc1cccc(Cl)c1)C(=O)O; dPhe(4-Cl) = N[C@H](Cc1ccc(Cl)cc1)C(=O)O; dPhe(2-Cl) = N[C@H](Cc1ccccc1Cl)C(=O)O; Hydrocinnamoyl = O=C(CCc1ccccc1)*; SSA = succinimidyl succinamide
We'd kindly ask you to apply these EC50 (nMol), cAMP classes: band 1 = under 0.03 nmol, band 2 = from 0.03 nmol up to 0.1 nmol, band 3 = 0.1 nmol and over

Here are 2 binders together with their reported answers.
[Hydrocinnamoyl]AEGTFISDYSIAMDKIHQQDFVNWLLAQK-NH2 (also: 1:2 TFA salt) ... band 3
Ac-[dY]AEGTFISDYSIAMDAIHQQDFVNWLLAQK([SSA-PEGm 30,000])-NH2 ... band 1

Lookup: Exercise: read the entry Ac-[dPhe(2-Cl)]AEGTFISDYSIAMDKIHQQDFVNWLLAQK-NH2 (also: 1:2 TFA salt) and state which class it falls under.
Found: band 3

Lookup: Exercise: read the entry Ac-[dPhe(4-Cl)]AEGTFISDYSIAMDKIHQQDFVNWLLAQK-NH2 (also: 1:2 TFA salt) and state which class it falls under.
Found: band 1

Lookup: Exercise: read the entry Ac-[dY]AEGTFISDYSIAMDAIHQQDFVNWLLAQK([SSA-PEGm 12,000])-NH2 and state which class it falls under.
Found: band 1

Lookup: Exercise: read the entry Ac-[dPhe(3-Cl)]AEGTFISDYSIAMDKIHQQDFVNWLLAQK-NH2 (also: 1:2 TFA salt) and state which class it falls under.
Found: band 2

Lookup: Exercise: read the entry AAEGTFISDYSIAMDKIHQQDFVNWLLAQK (position 1 is acetylated D-3-pyridylalanine (Ac-(D)3Pya); C-terminal amide (NH2)) and state which class it falls under.
Found: band 2

Lookup: Exercise: read the entry Ac-[dF]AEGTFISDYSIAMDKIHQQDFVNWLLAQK-NH2 (also: 1:2 TFA salt) and state which class it falls under.
Found: band 3
